target: UniProtKB A9KN98; experiment: Xylitol inhibition of the xylose isomerase, codon-optimized XI gene
measurement-label: pKi
Answers are plain numbers, as −log10 of the molar value.

### Prompt For the compound "OC[C@@H](O)[C@H](O)[C@@H](O)CO" , give its measured pKi value.
### Response 1.84

====

molecular target: Clostridium phytofermentans xylose isomerase (SEQ ID NO: 1) (Lachnoclostridium phytofermentans, UniProt A9KN98)
Sequence (A9KN98 1-438): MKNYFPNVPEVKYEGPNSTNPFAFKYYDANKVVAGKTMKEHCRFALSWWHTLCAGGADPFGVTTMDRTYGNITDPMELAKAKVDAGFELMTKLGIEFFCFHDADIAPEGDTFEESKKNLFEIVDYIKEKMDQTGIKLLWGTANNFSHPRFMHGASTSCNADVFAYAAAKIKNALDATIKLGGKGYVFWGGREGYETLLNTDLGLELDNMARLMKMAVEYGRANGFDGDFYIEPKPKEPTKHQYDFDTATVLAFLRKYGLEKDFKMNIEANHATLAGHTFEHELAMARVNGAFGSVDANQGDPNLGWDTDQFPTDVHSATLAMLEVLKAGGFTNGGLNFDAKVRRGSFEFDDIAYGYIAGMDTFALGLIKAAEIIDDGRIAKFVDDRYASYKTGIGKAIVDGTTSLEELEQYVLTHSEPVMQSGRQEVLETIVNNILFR
measurement-label: pKi
Numbers only, as −log10 of the molar value.

### Prompt For the compound "OC[C@@H](O)[C@H](O)[C@@H](O)CO" , give its measured pKi value.
### Response 1.85
